Molecular target: Endoribonuclease toxin MazF (Escherichia coli K-12)
Sequence (P0AE70 whole entry): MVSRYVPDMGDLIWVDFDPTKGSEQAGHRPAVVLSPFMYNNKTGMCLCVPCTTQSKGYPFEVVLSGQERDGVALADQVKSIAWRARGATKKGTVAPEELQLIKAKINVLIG
Assay: fluorescent RNA oligo signal without MazF, dose response, counter-screen for MazEF activator project, biochemical, fluorescence, single-stranded RNase substrate (AID 588502)
Format: functional
The source made the active and inactive calls.
Returns: one label drawn from True for active, False for inactive

Qu. Answer briefly: the call reported for Br.N=c1n(CC(=O)c2ccc([N+](=O)[O-])cc2)c2ccccc2n1Cc1ccc(Cl)cc1 in this assay.
Ans. True

Qu. Answer briefly: the call reported for O=C(CSc1nnc2scc(-c3ccccc3)n12)c1ccc2c(c1)OCCO2 in this assay.
Ans. False

Qu. Answer briefly: the call reported for CCCn1c(O)c(N=Nc2ccc3ccccc3n2)c2ccccc21 in this assay.
Ans. False

Qu. Answer briefly: the call reported for CC(C)=CCc1cc(-c2oc3cc(O)cc(O)c3c(=O)c2O)ccc1O in this assay.
Ans. False

Qu. Answer briefly: the call reported for Oc1ccc2c(c1)OCC1(O)Cc3cc(O)c(O)cc3C21 (stereo not given) in this assay.
Ans. True

###

Biological target: Sentrin-specific protease 7 (Homo sapiens);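 further: Luminescence-based dose-response confirmation of ultra-high-throughput screening hits, measuring inhibition of SENP7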
Sequence (Q9BQF6 whole entry): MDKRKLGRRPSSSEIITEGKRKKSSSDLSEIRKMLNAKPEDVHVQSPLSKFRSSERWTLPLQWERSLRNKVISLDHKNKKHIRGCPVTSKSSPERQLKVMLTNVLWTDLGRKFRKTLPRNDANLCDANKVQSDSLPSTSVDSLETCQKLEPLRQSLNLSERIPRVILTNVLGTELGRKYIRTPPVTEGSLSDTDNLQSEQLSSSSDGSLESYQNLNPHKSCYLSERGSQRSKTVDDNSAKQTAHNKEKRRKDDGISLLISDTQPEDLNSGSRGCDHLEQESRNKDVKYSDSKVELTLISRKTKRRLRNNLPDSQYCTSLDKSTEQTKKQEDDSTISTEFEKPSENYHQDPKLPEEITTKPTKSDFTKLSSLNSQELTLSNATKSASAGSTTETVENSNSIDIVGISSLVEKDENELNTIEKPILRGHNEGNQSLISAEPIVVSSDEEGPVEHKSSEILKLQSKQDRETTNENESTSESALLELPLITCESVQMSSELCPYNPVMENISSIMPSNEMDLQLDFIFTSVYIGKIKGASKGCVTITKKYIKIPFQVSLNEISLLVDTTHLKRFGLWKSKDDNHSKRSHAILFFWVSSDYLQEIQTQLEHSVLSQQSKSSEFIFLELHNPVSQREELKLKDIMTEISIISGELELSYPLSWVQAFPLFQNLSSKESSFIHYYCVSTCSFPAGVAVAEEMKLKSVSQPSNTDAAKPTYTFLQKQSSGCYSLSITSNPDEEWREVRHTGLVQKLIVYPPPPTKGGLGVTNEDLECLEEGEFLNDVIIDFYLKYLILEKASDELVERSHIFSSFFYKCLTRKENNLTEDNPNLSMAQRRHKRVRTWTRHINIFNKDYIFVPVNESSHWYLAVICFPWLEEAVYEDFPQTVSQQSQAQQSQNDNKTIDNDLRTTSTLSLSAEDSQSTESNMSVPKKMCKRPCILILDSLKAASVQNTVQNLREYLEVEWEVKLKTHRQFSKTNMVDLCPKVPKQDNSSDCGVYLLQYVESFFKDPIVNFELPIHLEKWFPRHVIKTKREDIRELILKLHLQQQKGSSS
Format: functional
Active and inactive are the calls of the source.
Can you tell me IC50 for the items I'm about to list?

Qu. What measured IC50 goes with COC(=O)c1ccc(NC(=O)Nc2ccc(F)c(Cl)c2)cc1 ?
Ans. 6.56 µM (active)

Qu. What measured IC50 goes with CCn1c(O)c(N=Nc2ccc3ccccc3n2)c2ccccc21 ?
Ans. 0.857 µM (active)

Qu. What measured IC50 goes with Cc1cc(C(=O)N/N=C/C(Cl)=C/c2ccccc2)c(C)o1 ?
Ans. 7.77 µM (active)

Qu. What measured IC50 goes with NC(=O)c1ccccc1NC(=O)/C=C/c1c(Cl)cccc1Cl ?
Ans. 6.11 µM (active)

Qu. What measured IC50 goes with CC(C)C(=O)Nc1ccc2nn(-c3ccc(F)cc3)nc2c1 ?
Ans. 3.03 µM (active)

// provenance: ChEMBL document CHEMBL1201862
